# System: Pseudomonas aeruginosa
# test_summary: Antibacterial activity against Pseudomonas aeruginosa clinical isolate by macrodilution technique
# Type: functional
In this section, each of the compounds is paired with its reported MIC50.

| compound | MIC50 [µg/mL] |
| --- | --- |
| C[C@@H](O)[C@H]1C(=O)N2C(C(=O)O)=C(SCCNC=N)C[C@H]12 [IMIPENEM ANHYDROUS] | 2 |
| CC(C)(O/N=C(\C(=O)N[C@@H]1C(=O)N2C(C(=O)[O-])=C(C[n+]3ccccc3)CS[C@H]12)c1csc(N)n1)C(=O)O [CEFTAZIDIME] | 2 |
| CCN[C@@H]1C[C@H](N)[C@@H](O[C@H]2OC(CN)=CC[C@H]2N)[C@H](O)[C@H]1O[C@H]1OC[C@](C)(O)[C@H](NC)[C@H]1O [NETILMICIN] | 8 |
| NC[C@H]1O[C@H](O[C@H]2[C@H](O)[C@@H](O[C@H]3O[C@H](CO)[C@@H](O)[C@H](N)[C@H]3O)[C@H](N)C[C@@H]2N)[C@H](N)C[C@@H]1O [TOBRAMYCIN] | 1 |
| NCC[C@H](O)C(=O)N[C@@H]1C[C@H](N)[C@@H](O[C@H]2O[C@H](CN)[C@@H](O)[C@H](O)[C@H]2O)[C@H](O)[C@H]1O[C@H]1O[C@H](CO)[C@@H](O)[C@H](N)[C@H]1O [AMIKACIN] | 4 |
| CC1(C)S[C@@H]2[C@H](NC(=O)[C@H](C(=O)O)c3ccsc3)C(=O)N2[C@H]1C(=O)O [TICARCILLIN] | 32 |

* * *

# Tested on: Pseudomonas aeruginosa
# test_summary: Antibacterial activity against beta-lactams resistant Pseudomonas aeruginosa isolate expressing AmpC, MexAB-OprM pump by macrodilution technique
# Assay type: functional
In this section, each of the compounds is paired with its reported MIC.

| chemical_string | unit_label | MIC |
| --- | --- | --- |
| C[C@H]1[C@H](NC(=O)/C(=N\OC(C)(C)C(=O)O)c2csc(N)n2)C(=O)N1S(=O)(=O)O | µg/mL | 8 |
| CC(C)(O/N=C(\C(=O)N[C@@H]1C(=O)N2C(C(=O)[O-])=C(C[n+]3ccccc3)CS[C@H]12)c1csc(N)n1)C(=O)O | µg/mL | 4 |
| CC1(C)S[C@@H]2[C@H](NC(=O)[C@H](C(=O)O)c3ccsc3)C(=O)N2[C@H]1C(=O)O | µg/mL | 128 |
| CO/N=C(\C(=O)N[C@@H]1C(=O)N2C(C(=O)[O-])=C(C[N+]3(C)CCCC3)CS[C@H]12)c1csc(N)n1 | µg/mL | 8 |

* * *

# Test system: Pseudomonas aeruginosa
# test_summary: Antibacterial activity against Pseudomonas aeruginosa clinical isolates assessed as resistant rate by macrodilution technique
# Assay type: functional
In this section, each of the molecules is paired with its reported Activity.

| molecule | unit_label | Activity |
| --- | --- | --- |
| NC[C@H]1O[C@H](O[C@H]2[C@H](O)[C@@H](O[C@H]3O[C@H](CO)[C@@H](O)[C@H](N)[C@H]3O)[C@H](N)C[C@@H]2N)[C@H](N)C[C@@H]1O [TOBRAMYCIN] | % | 21.7 |
| C[C@@H](O)[C@H]1C(=O)N2C(C(=O)O)=C(SCCNC=N)C[C@H]12 [IMIPENEM ANHYDROUS] | % | 10.8 |
| CCN[C@@H]1C[C@H](N)[C@@H](O[C@H]2OC(CN)=CC[C@H]2N)[C@H](O)[C@H]1O[C@H]1OC[C@](C)(O)[C@H](NC)[C@H]1O [NETILMICIN] | % | 15 |
| CC(C)(O/N=C(\C(=O)N[C@@H]1C(=O)N2C(C(=O)[O-])=C(C[n+]3ccccc3)CS[C@H]12)c1csc(N)n1)C(=O)O [CEFTAZIDIME] | % | 3.3 |
| CC1(C)S[C@@H]2[C@H](NC(=O)[C@H](C(=O)O)c3ccsc3)C(=O)N2[C@H]1C(=O)O [TICARCILLIN] | % | 10.8 |
| NCC[C@H](O)C(=O)N[C@@H]1C[C@H](N)[C@@H](O[C@H]2O[C@H](CN)[C@@H](O)[C@H](O)[C@H]2O)[C@H](O)[C@H]1O[C@H]1O[C@H](CO)[C@@H](O)[C@H](N)[C@H]1O [AMIKACIN] | % | 1.7 |
